Entry source: PubChem BioAssay (NCI)

Test system: 786-0 renal
Test: NCI tumour cell line growth inhibition, 48 h
quantity: log10(TGI) (log10 of the value in µM)
All values: log10 TGI [µM].

These solved cases illustrate the format of a correct answer.
- CC(=O)c1ccc(N2C(=O)C3c4[nH]c5ccccc5c4C4CCC(C(C)(C)C)CC4C3C2=O)cc1 (centres undefined): 1.54
- CC1(C)OB(c2ccc(N(CCOS(C)(=O)=O)CCOS(C)(=O)=O)cc2)OC1(C)C: 1.33
- CCOC(=O)/C(=C/CC/C(C)=C/CC/C(C)=C/CCc1ccoc1)CC(=O)N1CCCCC1: 1.27

Input `N#C/C(=C\c1ccc(O)c(O)c1)C(=O)NCc1ccc(C(F)(F)F)cc1` , output reported log10(TGI).
1.57

Identify measured log10(TGI) corresponding to `CN(C)c1ccc(/C=C/C(=O)c2cc(C(C)(C)C)c(O)c(C(C)(C)C)c2)cc1`
0.90

Return log10(TGI) (reported value) for this compound: COc1cc(C2CC(C)(N3CCOCC3)Oc3cc4c(cc32)OCO4)cc(OC)c1OC (centres undefined)
1.06

Answer with the recorded log10(TGI) for the compound listed here: `COc1ccc2[nH]c(Cl)c(/C=C3/C(=O)Nc4ccccc43)c2c1`
-0.03

Recall and state the measured log10(TGI) for `O=C1c2c(O)cccc2C(C(=O)CCCCCC(=O)C2c3cccc(O)c3C(=O)c3c(O)cccc32)c2cccc(O)c21` .
1.33

====

System: HS 578T breast
Assay: NCI tumour cell line growth inhibition, 48 h
Reported values of TGI for individual entries

Some solved cases for reference:
* Cc1c(C)c2c(c(C)c1OC(=O)CCC(=O)[O-])CCC(C)(CCCCCCCCCCC[P+](c1ccccc1)(c1ccccc1)c1ccccc1)O2 (stereo unspecified) | 1.31 µM
* Cc1ccc(S(=O)(=O)N(CC(O)COc2ccccc2)c2c(F)c(F)cc(F)c2F)cc1 (stereo unspecified) | 50.8 µM
* CC(C)C[S+]1C2=C([O-])CC(C)(C)CC2=Nc2ccccc21 (stereo unspecified) | > 100 µM
* c1ccc(-c2csc3c2-n2cccc2C3N2CCCC2)cc1 (stereo unspecified) | > 100 µM
* CCOC(=O)/C(=C/CC/C(C)=C/CC/C(C)=C/CCc1ccoc1)CC(=O)N1CCCCC1 | 35.2 µM

Supply measured TGI of `CN(C)CCCNC(=O)N/N=C/c1ccc(O)cc1` in your reply.
> 100 µM

Please report the measured TGI for `COc1ccc(-c2nn(-c3cccc(Cl)c3)cc2/C=C2\NC(=S)N(c3ccc(Cl)cc3)C2=O)cc1`
24.1 µM

Write down TGI measured for item `CCOC(=O)NN(C(=O)OCC)c1ccc(N=Nc2ccc(OC)cc2)n1C`
> 100 µM

Output TGI of `CCOC(=O)c1c(N2CCCC2)[nH]c(=O)c(C(c2c(O)c(C(=O)OCC)c(N3CCCC3)[nH]c2=O)C(C)C)c1O`
> 100 µM

# return recorded TGI for entry `COc1c(C)c(C/C=C(\C)CC/C=C(\C)CC/C=C(\C)CCC=C(C)C)c(OC)c(OC)c1OC`
> 100 µM

Tell me its TGI given C/C=C1\CC(C(=O)OCC)CCCCCCC1=O (stereo unspecified) as the entry.
> 100 µM

Provide measured TGI value, entry: `CCO/C(O)=C(/C(=N)N1CCOCC1)C(=O)Nc1cccc(C(F)(F)F)c1`
> 100 µM

====

Recorded TGI values for a group of compounds are listed next.
System: EKVX NSCLC
Test: NCI tumour cell line growth inhibition, 48 h

Some compounds with recorded TGI:
- COC(=O)C(=O)C(CC(=O)Nc1cc(Cl)ccc1Cl)C(=O)OC (centres undefined): > 100 µM
- CC1(CO)C(O)CCC2(C)C1CCC1CC3CC12CCC3(O)CO (centres undefined): > 100 µM
- C[C@@H]1C[C@H]2OC(=O)[C@@]3(C)CCC[C@@](C)([C@@H]23)[C@@]1(O)CCc1ccoc1: > 100 µM
- N/C(=N\N=C\c1cc2ccccc2s1)c1cnccn1: > 100 µM
- Cc1ccc(S(=O)(=O)N(CC(O)COc2ccccc2)c2c(F)c(F)cc(F)c2F)cc1 (centres undefined): 92.3 µM
- Oc1cc(O)c2c(c1)O[C@H](c1ccc(O)c(O)c1)[C@@H](O)C2: > 100 µM
- c1ccc(CN2CCC(=NN3CCCCC3)CC2)cc1: > 100 µM
- C=C1CCC2CC1C(C(=O)c1c[nH]c3ccccc13)=NC2(C)C (centres undefined): > 100 µM

Could you now look at the following compound, please?
Give me measured TGI, please, for this compound: `CCCNC1=C2C[C@@H](C)C[C@@H](OC)[C@@H](OC(=O)CCCN)[C@H](C)/C=C(\C)[C@@H](OC(N)=O)[C@H](OC)/C=C\C=C(/C)C(=O)NC(=CC1=O)C2=O`
37.5 µM

====

Test system: SR leukemia
Experiment: NCI tumour cell line growth inhibition, 48 h; in the data active = GI50 below about 0.43 µM; inactive = the rest
Response enum: active, inactive

* Cc1cc(F)c(C(=O)Nc2cccc(-c3nncn3C(C)C)n2)cc1-n1cnc(C2CC2)c1 | inactive
* O=C(COc1ccc(/C=C2\Oc3ccc4ccccc4c3C2=O)cc1)c1ccc([N+](=O)[O-])cc1 | active
* Cc1c(C)c2c(c(C)c1OC(=O)CCC(=O)[O-])CCC(C)(CCCCCCCCCCC[P+](c1ccccc1)(c1ccccc1)c1ccccc1)O2 (stereo unspecified) | active
* O=CC(OC(=O)c1ccccc1)C(OC(=O)c1ccccc1)C(COC(c1ccccc1)(c1ccccc1)c1ccccc1)OC(=O)c1ccccc1 (stereo unspecified) | inactive
* CC/C=C\C[C@H]1C/C=C2/C(=O)C=C[C@H]2C/C=C\CCCC(=O)O1 | inactive

Recorded test outcome, item `COc1ccc(-c2nn(-c3cccc(Cl)c3)cc2/C=C2\NC(=S)N(c3ccc(Cl)cc3)C2=O)cc1`
inactive

Just curious, what result did `CN(C)c1ccc(C(=S)c2ccc(N(C)C)cc2)cc1` get here?
inactive

====

System: HT29 colon
Assay: NCI tumour cell line growth inhibition, 48 h
The entries below come with measured TGI values attached.

Check out these entries, answers already filled in.
* CCCCC(C(=O)C(=O)Nc1ccc(C)cc1C)C(=O)C(C)C (stereo not given) | > 100 µM
* Cc1ccc(C2(O)c3ccccc3C(=O)N(C)C2(O)c2ccc(C)cc2)cc1 (stereo not given) | > 100 µM

Report measured TGI; entry is `COc1ccc2[nH]c3cc4c(=O)c5cc(OC)ccc5[nH]c4cc3c(=O)c2c1`
> 100 µM

====

Test system: A549 NSCLC
Experiment: NCI tumour cell line growth inhibition, 48 h
quantity: TGI

Answered examples (5):
- c1ccc(CN2CCC(=NN3CCCCC3)CC2)cc1: > 100 µM
- CCOC(=O)/C(Br)=C1\OC(=O)c2ccccc2-c2ccccc21: > 100 µM
- Cc1ccccc1/C=C/c1csnn1: > 100 µM
- CCOC(=O)c1c(N2CCCC2)[nH]c(=O)c(C(c2c(O)c(C(=O)OCC)c(N3CCCC3)[nH]c2=O)C(C)C)c1O: > 100 µM
- COC(=O)[C@H](CNC(=O)/C=C/c1ccc(OC(C)=O)c(OC(C)=O)c1)NC(=O)/C=C/c1ccc(OC(C)=O)c(OC(C)=O)c1: > 100 µM

// fetch TGI for C/C=C1\CC(C(=O)OCC)CCCCCCC1=O (centres undefined) ; system: A549 NSCLC
> 100 µM

Give A549 NSCLC TGI for the following compound: `O=C(COc1ccc(/C=C2\Oc3ccc4ccccc4c3C2=O)cc1)c1ccc([N+](=O)[O-])cc1`
> 100 µM

Quote TGI with test system A549 NSCLC for `CC1(C)OB(c2ccc(N(CCOS(C)(=O)=O)CCOS(C)(=O)=O)cc2)OC1(C)C`
> 85.8 µM

Fill in TGI for `O=c1oc2cc(O)ccc2c2[nH]c3cc(O)ccc3c12` tested with A549 NSCLC.
> 100 µM

Return reported TGI for target or system A549 NSCLC, item CC(=O)OC1C[C@H]2C(OC(=O)c3ccccc3)C3C4(OC(C)=O)COC4C[C@H](OC(C)=O)[C@@]3(C)C(OC(C)=O)[C@H](OC(C)=O)C(=C1C)C2(C)C (some centres undefined) .
> 100 µM

# return TGI of `CCCNC1=C2C[C@@H](C)C[C@@H](OC)[C@@H](OC(=O)CCCN)[C@H](C)/C=C(\C)[C@@H](OC(N)=O)[C@H](OC)/C=C\C=C(/C)C(=O)NC(=CC1=O)C2=O` (system: A549 NSCLC)
40.6 µM

# assay system A549 NSCLC: give TGI of `O=C(Nc1ccccc1[N+](=O)[O-])/C(=N/Nc1cccc(Cl)c1)c1c(O)c2ccccc2oc1=O`
> 100 µM

Name the value of TGI reported for `Nc1n[n+]([O-])c2cc([N+](=O)[O-])ccc2[n+]1[O-]` when tested on A549 NSCLC.
44.6 µM
